tested on: SNB-75 CNS; assay: NCI-60 one-dose screen, 48 h; settings: 10 µM unless noted
This is part of a sample that, as a whole, favours compounds with a hit. Of some 83,000 tested, about 20% had one in any assay. Active and inactive are the calls of the source. The calls were made as follows: active = growth percent below 10; inactive = the rest.
// classify into T for active, F for inactive

Some solved entries appear below for comparison.
# Chemical string, Classification
rows = [
    ("O=C(NCc1ccccc1O)c1cccc2ccccc12", "F"),
    ("C#Cc1cccc(Nc2nc3ccc([N+](=O)[O-])cc3nc2Nc2cccc(C#C)c2)c1", "T"),
    ("COc1ccc(/C(C)=C(\\c2ccc(OCCN3CCCCCC3)cc2)c2ccc(OC(=O)c3ccccc3)cc2)cc1", "F"),
    ("COc1cc(/C=C2\\CN(S(=O)(=O)c3ccc(C)cc3)C/C(=C\\c3cc(CN4CCCCC4)c(O)c(OC)c3)C2=O)cc(CN2CCCCC2)c1O", "T"),
    ("COc1cc2nc(Nc3cccc(F)c3)nc(Nc3cc(C)[nH]n3)c2cc1OC", "T"),
    ("COc1ccc2cc(-c3ccc(-c4ccc(C(=N)N)s4)s3)ccc2c1", "F"),
]

Next, consider the following molecule.
# input Hello, I am checking results. What call was entered for COc1ccc2nc3ccccc3c(NCc3ccccc3)c2c1 ?
# output F
